Where do these numbers come from? They come from patent US20210284749A1.

Target: T1, human BCMA expressed on cell surface (H929, OPM-2, CHOK1-hBCMA cells) (human, UniProt Q02223 1-184)
T1 construct: also called cell-surface BCMA; BCMA on cell surface
T1 sequence: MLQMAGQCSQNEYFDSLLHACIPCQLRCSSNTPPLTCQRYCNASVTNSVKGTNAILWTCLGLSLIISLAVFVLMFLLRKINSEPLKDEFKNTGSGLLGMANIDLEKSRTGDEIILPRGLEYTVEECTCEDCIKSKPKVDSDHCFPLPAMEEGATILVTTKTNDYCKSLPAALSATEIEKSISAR
Experiment: FACS on H929 cells
# MFI per entry
Endpoint Label: MFI

* mutant antibody 5D5 LM4 (antibody, V domains shown, Light chain CDR mutant of 5D5 (IgG1); heavy chain as 5D5) VH: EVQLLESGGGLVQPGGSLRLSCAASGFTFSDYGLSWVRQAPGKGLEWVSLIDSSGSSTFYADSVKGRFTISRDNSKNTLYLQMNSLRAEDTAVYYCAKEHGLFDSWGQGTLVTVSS VL: EIVLTQSPGTLSLSPGERATLSCKASQDIDDAINWYQQKPGQAPRLLIYDASLRATGIPDRFSGSGSGTDFTLTISRLEPEDFAVYYCQQSLRTPITFGQGTKLEIKR | 62.3
* mutant antibody 5A6 LM4 (antibody, V domains shown, Light chain CDR mutant of 5A6 (IgG1); heavy chain as 5A6) VH: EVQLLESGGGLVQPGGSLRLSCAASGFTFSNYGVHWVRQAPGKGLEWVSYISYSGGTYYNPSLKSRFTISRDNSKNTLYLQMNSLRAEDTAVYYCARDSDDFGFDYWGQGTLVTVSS VL: QSVLTQPPSASGTPGQRVTISCQGDSLRSYYVNWYQQLPGTAPKLLIYDHSKRPTGVPDRFSGSKSGTSASLAISGLRSEDEADYYCQSYDASTVVFGGGTKLTVLG | 77.1
